test system: HeLa cells; assay: cytotoxicity by crystal violet staining; format: cell-based; settings: 5 μM, Dark, 40 h
Where a name gives a salt, the structure may show the parent alone.
Value Kind: mean fold growth (fold)
Just the number please, in fold, no unit attached.

[Q] Tell me the measured mean fold growth of `COc1ccc(N=Nc2cc(OC)c(OC)c(OC)c2)c(F)c1` , please.
[A] 0.94

[Q] Thanks! And COc1ccc(N=Nc2cc(OC)c(OC)c(OC)c2)cc1OC(=O)N1CCCCC1CNC(=O)[C@@H](N)CC(C)C (stereo partly shown) [I.10, 2,2,2-trifluoroacetate salt] ?
[A] 0.99

[Q] Thanks! And `COc1ccc(N=Nc2cc(OC)c(OC)c(OC)c2)cc1O` ?
[A] 0.84

[Q] Thanks! And `COc1ccc(N=Nc2cc(OC)c(OC)c(OC)c2)cc1N` ?
[A] 0.86

[Q] Thanks! And COc1ccc(N=Nc2cc(OC)c(OC)c(OC)c2)cc1NC(=O)[C@@H](N)CO [I.20, 2,2,2-trifluoroacetate salt] ?
[A] 1.03

[Q] Thanks! And COc1ccc(N=Nc2cc(OC)c(OC)c(OC)c2)cc1 [I.6, reference compound] ?
[A] 0.93

[Q] Thanks! And `COc1ccc(N=Nc2cc(OC)c(OC)c(OC)c2)cc1F` ?
[A] 0.96
